system: Bacillus subtilis (ATCC 6633); assay: Paper disk diffusion MIC; format: cell-based; conditions: ATCC6633, 24 h, read-out: Minimal Inhibitory Concentration (MIC)
Listing of entries alongside the reported MIC.
Numbers only here, please. The scale is µg/mL.

{"molecule": "Cc1cccc(NC(=O)CSc2nc3ccccc3c(=O)n2-c2ccc(S(N)(=O)=O)cc2)c1", "readout kind": "MIC", "recorded number": 1.25}

If you can, please state the reported MIC value of CN[C@H](CC(C)C)C(=O)N[C@H]1C(=O)N[C@@H](CC(N)=O)C(=O)N[C@H]2C(=O)N[C@H]3C(=O)N[C@H](C(=O)N[C@H](C(=O)O)c4cc(O)cc(O)c4-c4cc3ccc4O)[C@H](O)c3ccc(c(Cl)c3)Oc3cc2cc(c3O[C@@H]2O[C@H](CO)[C@@H](O)[C@H](O)[C@H]2O[C@H]2C[C@](C)(N)[C@H](O)[C@H](C)O2)Oc2ccc(cc2Cl)[C@H]1O [Vancomycin, reference compound] .
1.95

----------
tested on: Pseudomonas aeruginosa (ATCC 27853); experiment: Agar plate diffusion, inhibition zone; format: cell-based; conditions: ATCC27853, 24 h, read-out: Mean Diameter of Inhibition Zone (IZ)
readout kind: zone of inhibition at 500 µg/mL (mm)
Numbers only here, please. The scale is mm.

Below, each entry is followed by its recorded zone of inhibition at 500 µg/mL result.
{"compound": "Cc1ccccc1NC(=O)CSc1nc2ccccc2c(=O)n1-c1ccc(S(N)(=O)=O)cc1", "study system": "Pseudomonas aeruginosa (ATCC 27853)", "measure unit": "mm", "zone of inhibition at 500 µg/mL": 17}
{"compound": "CN[C@H](CC(C)C)C(=O)N[C@H]1C(=O)N[C@@H](CC(N)=O)C(=O)N[C@H]2C(=O)N[C@H]3C(=O)N[C@H](C(=O)N[C@H](C(=O)O)c4cc(O)cc(O)c4-c4cc3ccc4O)[C@H](O)c3ccc(c(Cl)c3)Oc3cc2cc(c3O[C@@H]2O[C@H](CO)[C@@H](O)[C@H](O)[C@H]2O[C@H]2C[C@](C)(N)[C@H](O)[C@H](C)O2)Oc2ccc(cc2Cl)[C@H]1O [Vancomycin, reference compound]", "study system": "Pseudomonas aeruginosa (ATCC 27853)", "measure unit": "mm", "zone of inhibition at 500 µg/mL": 22}
{"compound": "Cc1cccc(NC(=O)CSc2nc3ccccc3c(=O)n2-c2ccc(S(N)(=O)=O)cc2)c1", "study system": "Pseudomonas aeruginosa (ATCC 27853)", "measure unit": "mm", "zone of inhibition at 500 µg/mL": 14}
{"compound": "CN(C)[C@@H]1C(O)=C(C(N)=O)C(=O)[C@@]2(O)C(O)=C3C(=O)c4c(O)cccc4[C@@](C)(O)[C@H]3C[C@@H]12 [Tetracycline, reference compound]", "study system": "Pseudomonas aeruginosa (ATCC 27853)", "measure unit": "mm", "zone of inhibition at 500 µg/mL": 20}
{"compound": "NS(=O)(=O)c1ccc(-n2c(SCC(=O)Nc3ccccc3)nc3ccccc3c2=O)cc1", "study system": "Pseudomonas aeruginosa (ATCC 27853)", "measure unit": "mm", "zone of inhibition at 500 µg/mL": 15}

Next:
If you can, please state the reported zone of inhibition at 500 µg/mL value of O=C(O)c1cn(C2CC2)c2cc(N3CCNCC3)c(F)cc2c1=O [Ciprofloxacin, reference compound] .
24
